Catalogue of ED50 readings, one per entry.
# Tested on: intratracheal pressure (ITP) of guinea pig
# protocol.details: In vivo bronchodilator activity, intratracheal pressure test (ITP)
# settings: Cavia porcellus; intraduodenal; 50% decrease in intratracheal pressure
Use mg/kg as the unit, but write only the number.

Check out these entries, answers already filled in.
Task item: Report ED50 for CCCCOc1nc(N)c2ncn(C3CCCCC3)c2n1 [n-C4 H9 O / drawing 30, 2-n-Butoxy-9-cyclohexyl-9H-adenine] please.
Reply: 1.4

Task item: Now give it for CCCOc1nc(N)c2ncn(C3C=CCCC3)c2n1 (stereo not shown) [n-C3 H7 O / drawing 31] too.
Reply: 1.2

Task item: Now give it for CCOc1nc(N)c2ncn(C3C=CCCC3)c2n1 (stereo not shown) [C2 H5 O / drawing 31, 9-(2-Cyclohexenyl)-2-ethoxy-9H-adenine] too.
Reply: 0.62

Consider the record given below.
Task item: Report ED50 for CCCOc1nc(N)c2ncn(C3CCCCC3)c2n1 [n-C3 H7 O / drawing 30, 9-Cyclohexyl-2-n-propoxy-9H-adenine] please.
Reply: 1.2

---

# protocol.details: Separation of bronchodilator and cardiovascular effects (ABP/ITP)
# settings: guinea pig, in vivo; intraduodenal; ratio of hypotensive ED20 / bronchodilating ED50
measure: selectivity ratio
Respond numerically, and do not add a unit to the figure.

Task item: Report selectivity ratio for CCOc1nc(N)c2ncn(C3C=CCCC3)c2n1 (stereo not shown) [C2 H5 O / drawing 31, 9-(2-Cyclohexenyl)-2-ethoxy-9H-adenine] please.
Reply: 19

Task item: Now give it for CCCOc1nc(N)c2ncn(C3C=CCCC3)c2n1 (stereo not shown) [n-C3 H7 O / drawing 31] too.
Reply: 2

Task item: Now give it for CCCCOc1nc(N)c2ncn(C3CCCCC3)c2n1 [n-C4 H9 O / drawing 30, 2-n-Butoxy-9-cyclohexyl-9H-adenine] too.
Reply: 5.9

Next:
Task item: Report selectivity ratio for CCCOc1nc(N)c2ncn(C3CCCCC3)c2n1 [n-C3 H7 O / drawing 30, 9-Cyclohexyl-2-n-propoxy-9H-adenine] please.
Reply: 15

---

# protocol.details: Separation of bronchodilator and cardiovascular effects (ABP/ITP)
# settings: guinea pig, in vivo; intravenous; ratio of hypotensive ED20 / bronchodilating ED50
Catalogue of selectivity ratio readings, one per entry.
Respond numerically, and do not add a unit to the figure.

Task item: Report selectivity ratio for CCOc1nc(N)c2ncn(C3C=CCCC3)c2n1 (stereo not shown) [C2 H5 O / drawing 31, 9-(2-Cyclohexenyl)-2-ethoxy-9H-adenine] please.
Reply: 12

Task item: Now give it for CCOc1nc(N)c2ncn(C3CCCCC3)c2n1 [C2 H5 O / drawing 30, 2-Ethoxy-9-cyclohexyl-9H-adenine] too.
Reply: 6.8

Task item: Now give it for CCCCOc1nc(N)c2ncn(C3CCCCC3)c2n1 [n-C4 H9 O / drawing 30, 2-n-Butoxy-9-cyclohexyl-9H-adenine] too.
Reply: 1470

Task item: Now give it for CCCOc1nc(N)c2ncn(C3CCCCC3)c2n1 [n-C3 H7 O / drawing 30, 9-Cyclohexyl-2-n-propoxy-9H-adenine] too.
Reply: 12

Task item: Now give it for CCCOc1nc(N)c2ncn(C3C=CCCC3)c2n1 (stereo not shown) [n-C3 H7 O / drawing 31] too.
Reply: 5.9

Consider the record given below.
Task item: Report selectivity ratio for Nc1nc(Cl)nc2c1ncn2C1C=CCCC1 (stereo not shown) [Cl / drawing 31, 2-Chloro-9-(2-cyclohexenyl)-9H-adenine] please.
Reply: 17
